target.under.test: DDR1 kinase (Homo sapiens)
protocol.summary: Evaluation of DDR1 kinase inhibition in DDR1-expressing U2OS cells (type I collagen stimulation, PathHunter detection)
Format: cell-based
Set-up: host or cells: U2OS
condition.context: type I collagen 50 µg/mL stimulation, duplicate, read-out: DDR-1 IC50
Sequence (Q08345 19-913): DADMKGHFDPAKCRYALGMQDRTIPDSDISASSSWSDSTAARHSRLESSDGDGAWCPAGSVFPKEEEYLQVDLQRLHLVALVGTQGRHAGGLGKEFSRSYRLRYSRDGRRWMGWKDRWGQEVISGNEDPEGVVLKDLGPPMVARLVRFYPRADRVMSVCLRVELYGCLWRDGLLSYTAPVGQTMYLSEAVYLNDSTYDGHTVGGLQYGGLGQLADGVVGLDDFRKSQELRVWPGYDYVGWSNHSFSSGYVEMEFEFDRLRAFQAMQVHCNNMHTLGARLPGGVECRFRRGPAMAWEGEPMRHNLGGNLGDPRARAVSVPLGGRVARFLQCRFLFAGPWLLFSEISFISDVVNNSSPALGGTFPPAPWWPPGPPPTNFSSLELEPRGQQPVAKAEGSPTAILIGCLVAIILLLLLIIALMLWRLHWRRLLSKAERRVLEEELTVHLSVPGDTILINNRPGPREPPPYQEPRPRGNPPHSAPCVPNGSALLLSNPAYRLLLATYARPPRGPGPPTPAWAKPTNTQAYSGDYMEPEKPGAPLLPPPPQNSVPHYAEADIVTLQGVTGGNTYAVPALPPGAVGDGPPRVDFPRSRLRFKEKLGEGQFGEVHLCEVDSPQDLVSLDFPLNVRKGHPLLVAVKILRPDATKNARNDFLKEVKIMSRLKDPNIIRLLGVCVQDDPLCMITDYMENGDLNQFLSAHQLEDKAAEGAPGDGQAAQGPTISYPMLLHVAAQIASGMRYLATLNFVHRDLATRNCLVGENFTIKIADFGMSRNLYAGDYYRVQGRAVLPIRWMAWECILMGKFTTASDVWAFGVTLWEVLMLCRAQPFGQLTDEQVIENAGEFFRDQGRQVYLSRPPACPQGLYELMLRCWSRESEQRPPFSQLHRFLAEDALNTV
Where a name gives a salt, the structure may show the parent alone.
Known log10 of IC50 of a selection of compounds
reported.endpoint: log10 of IC50 (log10 of the value in nM)

- compound: "Nc1cc(C(=O)N2CC(c3nn(Cc4nc(C(F)(F)F)no4)c4cccc(F)c34)C2)ccn1 [Compound E-115, hydrochloride]"
  target.under.test: "DDR1 kinase (Homo sapiens)"
  log10 of IC50: 2.40
- compound: "Nc1cc(C(=O)N2CC(c3nn(Cc4noc(-c5ccc(F)cc5)n4)c4cccc(F)c34)C2)ccn1"
  target.under.test: "DDR1 kinase (Homo sapiens)"
  log10 of IC50: 2.90
- compound: "Nc1cc(C(=O)N2CC(c3nn(CC(=O)N4CCC[C@H]4C(F)(F)F)c4ccccc34)C2)c(F)cn1"
  target.under.test: "DDR1 kinase (Homo sapiens)"
  log10 of IC50: 1.72
- compound: "O=C(c1ccc2[nH]nnc2c1)N1CC(c2nn(CC(=O)N3CCC[C@H]3C(F)(F)F)c3cc(F)cc(F)c23)C1"
  target.under.test: "DDR1 kinase (Homo sapiens)"
  log10 of IC50: 3.04
- compound: "Nc1cc(C(=O)N2CC=C(c3cn(CC(=O)N4CCC[C@H]4C(F)(F)F)c4cccc(F)c34)CC2)ccn1"
  target.under.test: "DDR1 kinase (Homo sapiens)"
  log10 of IC50: 2.15
- compound: "CC1(C)COCCN1C(=O)Cn1nc(C2CN(C(=O)c3ccnc(N)c3)C2)c2ccccc21"
  target.under.test: "DDR1 kinase (Homo sapiens)"
  log10 of IC50: 1.95
- compound: "Cl.Nc1cc(C(=O)N2CC(c3nn(CC(=O)N4CCC[C@H]4C(F)(F)F)c4cc(F)cc(F)c34)C2)ccn1 [Compound E-2, hydrochloride]"
  target.under.test: "DDR1 kinase (Homo sapiens)"
  log10 of IC50: 1.57

###

target.under.test: DDR1 kinase (Homo sapiens)
protocol.summary: Evaluation of DDR1 kinase inhibition (LANCE Ultra TR-FRET kinase assay)
Type: biochemical
Parameters: purchased Carna Biosciences 08-113
condition.context: DDR1 protein 0.5 nM, LANCE Ultra ULight-poly GAT substrate, 2 hours at room temperature, duplicate; read-out: DDR-1 IC50
Sequence (Q08345 19-876 isoform Q08345-2 limits assumed): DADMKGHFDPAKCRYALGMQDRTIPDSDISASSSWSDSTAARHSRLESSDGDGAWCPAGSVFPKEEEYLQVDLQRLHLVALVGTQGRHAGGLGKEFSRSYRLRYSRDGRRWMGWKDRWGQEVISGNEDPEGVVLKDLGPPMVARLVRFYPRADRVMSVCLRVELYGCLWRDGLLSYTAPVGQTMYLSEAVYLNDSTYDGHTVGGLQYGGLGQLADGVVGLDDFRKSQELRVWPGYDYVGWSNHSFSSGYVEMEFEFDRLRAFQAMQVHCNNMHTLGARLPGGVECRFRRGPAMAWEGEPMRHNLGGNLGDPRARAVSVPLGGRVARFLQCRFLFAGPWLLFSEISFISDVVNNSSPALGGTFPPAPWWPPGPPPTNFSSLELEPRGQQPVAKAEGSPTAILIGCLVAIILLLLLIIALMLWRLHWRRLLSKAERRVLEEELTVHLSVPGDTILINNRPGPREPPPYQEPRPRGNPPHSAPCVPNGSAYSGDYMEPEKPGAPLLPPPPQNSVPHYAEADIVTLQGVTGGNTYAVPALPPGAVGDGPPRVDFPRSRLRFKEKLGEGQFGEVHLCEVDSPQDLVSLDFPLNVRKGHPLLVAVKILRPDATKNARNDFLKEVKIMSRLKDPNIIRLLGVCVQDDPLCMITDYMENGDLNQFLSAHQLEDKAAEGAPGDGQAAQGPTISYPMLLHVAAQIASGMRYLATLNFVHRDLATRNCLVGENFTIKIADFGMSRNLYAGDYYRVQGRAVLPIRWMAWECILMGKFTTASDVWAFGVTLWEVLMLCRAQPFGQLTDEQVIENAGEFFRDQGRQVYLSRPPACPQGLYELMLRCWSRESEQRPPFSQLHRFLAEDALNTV
Counter-ions that a name gives are not always drawn.

- molecule: "Nc1cc(C(=O)N2CC(c3nn(CC(=O)N4CCC[C@H]4C(F)(F)F)c4ccc(F)c(Cl)c34)C2)ccn1"
  IC50: "1.4 nM"
- molecule: "O=C(c1cnc2ccccn12)N1CC(c2nn(CC(=O)N3CCC[C@H]3C(F)(F)F)c3cc(F)cc(F)c23)C1"
  IC50: "21 nM"
- molecule: "Nc1cc(C(=O)N2CC(c3nn(Cc4ccc(C(F)(F)F)cn4)c4cncc(F)c34)C2)ccn1"
  IC50: "350 nM"
- molecule: "Nc1cc(C(=O)N2CC(c3nn(Cc4nc(-c5cccc(C(F)(F)F)c5)no4)c4cccc(F)c34)C2)ccn1"
  IC50: "23 nM"
- molecule: "Nc1cc(C(=O)N2CCC(c3cn(CC(=O)N4CCC[C@H]4C(F)(F)F)c4cccc(F)c34)CC2)ccn1"
  IC50: "1 nM"
- molecule: "Nc1cc(C(=O)N2CCC(c3nn(CC(=O)N4CCC[C@H]4C(F)(F)F)c4cccc(F)c34)CC2)ccn1"
  IC50: "1.5 nM"
- molecule: "CC(C(=O)N1CCC[C@H]1C(F)(F)F)n1nc(C2CN(C(=O)c3ccnc(N)c3)C2)c2c(F)cc(F)cc21 (stereo partly shown) [Compound E-103, hydrochloride]"
  IC50: "14 nM"
- molecule: "CC1(C)CN(C(=O)Cn2nc(C3CN(C(=O)c4cc(N)ncc4F)C3)c3c(F)cc(F)cc32)CCO1"
  IC50: "8.4 nM"
- molecule: "Nc1cc(C(=O)N2CC(c3nn(Cc4cn(CC(F)(F)F)nn4)c4cccc(F)c34)C2)ccn1 [Compound E-52, hydrochloride]"
  IC50: "43 nM"
- molecule: "Nc1cc(C(=O)N2CC(c3nn(CC(=O)N4CCC5CC54)c4ccccc34)C2)ccn1 (stereo not shown)"
  IC50: "82 nM"
- molecule: "Nc1cc(C(=O)N2CC(c3nn(Cc4nnc(C(F)(F)F)o4)c4cccc(F)c34)C2)ccn1"
  IC50: "180 nM"
- molecule: "Cc1ccc2c(c1)c(C1CN(C(=O)c3cc(N)ncc3F)C1)nn2CC(=O)N1CCC[C@H]1C(F)(F)F"
  IC50: "1.7 nM"
- molecule: "Nc1cc(C(=O)N2CC(c3nn(Cc4noc(C5CCOCC5)n4)c4cccc(F)c34)C2)ccn1"
  IC50: "34 nM"
- molecule: "CN(CCN1CCOCC1)C(=O)Cn1nc(C2CN(C(=O)c3cc(N)ncc3F)C2)c2ccccc21"
  IC50: "170 nM"
- molecule: "O=C(c1cnc(NC2CC2)s1)N1CC(c2nn(CC(=O)N3CCC[C@H]3C(F)(F)F)c3cc(F)cc(F)c23)C1"
  IC50: "86 nM"
- molecule: "O=C(Cn1nc(C2CN(C(=O)c3ccnc(NC4CC4)c3)C2)c2c(Cl)c(F)ccc21)NCC(F)(F)F [Compound E-1, hydrochloride]"
  IC50: "0.4 nM"
- molecule: "Cc1ccc2c(n1)c(C1CN(C(=O)c3cc(N)ncc3F)C1)nn2CC(=O)N1CCOC(C(F)(F)F)C1 (stereo not shown)"
  IC50: "22 nM"
- molecule: "CN(C(=O)Cn1nc(C2CN(C(=O)c3cc(N)ncc3F)C2)c2ccccc21)C(C)(C)C"
  IC50: "3.9 nM"
- molecule: "CN(CC(F)(F)F)C(=O)Cn1nc(C2CN(C(=O)c3cc(N)ncc3F)C2)c2c(F)cccc21"
  IC50: "5.4 nM"
- molecule: "O=C(c1ccncc1Cl)N1CC(c2nn(CC(=O)N3CCC[C@H]3C(F)(F)F)c3cc(F)cc(F)c23)C1"
  IC50: "4.1 nM"
- molecule: "Nc1cc(C(=O)N2CC(c3nn(CC(=O)N4CCC[C@H]4C(F)(F)F)c4cc(F)c(F)cc34)C2)c(F)cn1"
  IC50: "0.9 nM"
- molecule: "CN(CC1CC1)C(=O)Cn1nc(C2CN(C(=O)c3ccnc(N)c3)C2)c2ccccc21"
  IC50: "6 nM"
- molecule: "Nc1nccc(C(=O)N2CC(c3nn(CC(=O)N4CCC[C@H]4C(F)(F)F)c4ccc(F)cc34)C2)n1"
  IC50: "4.3 nM"
- molecule: "C[C@@H]1CCC[C@H](C)N1C(=O)Cn1nc(C2CN(C(=O)c3cc(N)ncc3F)C2)c2ccccc21"
  IC50: "4.5 nM"
- molecule: "O=C(c1cn[nH]c1)N1CC(c2nn(CC(=O)N3CCC[C@H]3C(F)(F)F)c3cc(F)cc(F)c23)C1"
  IC50: "200 nM"
- molecule: "Nc1cc(C(=O)N2CC(c3nn(CC(=O)N4CCO[C@@H](C(F)(F)F)C4)c4cc(F)cc(F)c34)C2)ccn1 [Compound E-73, hydrochloride]"
  IC50: "5.6 nM"
- molecule: "CO[C@H]1CCN(C(=O)Cn2nc(C3CN(C(=O)c4cc(N)ncc4F)C3)c3ccccc32)C1"
  IC50: "54 nM"
- molecule: "Nc1cc(C(=O)N2CC(c3nn(CC4CN(c5ccccc5)C4)c4cc(F)cc(F)c34)C2)ccn1"
  IC50: "350 nM"

###

target.under.test: UniProtKB Q08345
protocol.summary: Evaluation of DDR1 kinase inhibition in DDR1-expressing U2OS cells (type I collagen stimulation, PathHunter detection)
Assay type: cell-based
Design: host or cells: U2OS
condition.context: type I collagen 50 µg/mL stimulation, duplicate, read-out: DDR-1 IC50
Where a name gives a salt, the structure may show the parent alone.
Criterion: IC50 strictly less than 100 nM. Met: Y. Not met: N.

- compound: "CN(CC(F)(F)F)C(=O)Cn1nc(C2CN(C(=O)c3nc(N)ncc3F)C2)c2cc(Cl)ccc21 [Compound E-21]"
  class: "N"
- compound: "Nc1nc(C(F)(F)F)c(C(=O)N2CC(c3nn(CC(=O)N4CCC[C@H]4C(F)(F)F)c4cc(F)cc(F)c34)C2)s1 [Compound E-139]"
  class: "N"
- compound: "Nc1cc(C(=O)N2CC(c3cn(CC(=O)N4CCC[C@H]4C(F)(F)F)c4ccccc34)C2)ccn1 [Compound E-11]"
  class: "N"
- compound: "CN(C(=O)Cn1nc(C2CN(C(=O)c3cc(N)ncc3F)C2)c2ccccc21)C1COC1 [Compound E-254]"
  class: "N"
- compound: "CCN(CC)C(=O)Cn1nc(C2CN(C(=O)c3cc(N)ncc3F)C2)c2ccccc21 [Compound E-263]"
  class: "Y"
- compound: "O=C(c1cnc2ccccn12)N1CC(c2nn(CC(=O)N3CCC[C@H]3C(F)(F)F)c3cc(F)cc(F)c23)C1 [Compound E-101]"
  class: "N"
- compound: "Cc1nc(NC2CC2)sc1C(=O)N1CC(c2nn(CC(=O)N3CCC[C@H]3C(F)(F)F)c3cc(F)cc(F)c23)C1 [Compound E-99]"
  class: "N"
- compound: "Nc1cc(C(=O)N2CC(c3nn(Cc4nc(-c5ccc(F)cc5)no4)c4cccc(F)c34)C2)ccn1 [Compound E-104]"
  class: "N"
- compound: "Nc1cc(C(=O)N2CC(c3nn(CC(=O)N4CCO[C@@H](C(F)(F)F)C4)c4cc(F)cc(F)c34)C2)c(F)cn1 [Compound E-42]"
  class: "N"
- compound: "C[C@@H](N(C)C(=O)Cn1nc(C2CN(C(=O)c3cc(N)ncc3F)C2)c2ccccc21)C(F)(F)F [Compound E-262]"
  class: "Y"
- compound: "O=C(Cn1nc(C2CN(C(=O)c3ccnc(NC4CCC4)c3)C2)c2c(F)cccc21)NCC(F)(F)F [Compound E-68, hydrochloride]"
  class: "Y"
- compound: "O=C(Cn1nc(C2CN(C(=O)c3ccnc(NC4CC4)c3)C2)c2c(F)cccc21)NCC(F)(F)F [Compound E-65, hydrochloride]"
  class: "Y"
- compound: "Cc1nc(N)sc1C(=O)N1CC(c2nn(CC(=O)N3CCC[C@H]3C(F)(F)F)c3cc(F)cc(F)c23)C1 [Compound E-106]"
  class: "N"
- compound: "CN(CC(F)(F)F)C(=O)Cn1nc(C2CN(C(=O)c3cc(N)ncc3F)C2)c2ccccc21 [Compound E-240]"
  class: "N"
